The reported numbers originate from ChEMBL document CHEMBL3627667.

# Tested on: SW-620
# ASSAY_COMMENT: Antiproliferative activity against human SW620 cells incubated for 72 hrs by MTT assay
# Type: functional, cell-based
# ASSAY_CONDITIONS: Homo sapiens, SW-620, 72 h
So I've got a bunch of molecules here, and I need their IC50 values.

What value of IC50 has been recorded for this entry: O=C1NC(O)(CCn2cnc3cc[nH]c3c2=O)C(OCc2ccccc2)=C1OCc1ccccc1 (centres undefined)
90.7 µM

What value of IC50 has been recorded for this entry: O=C1NC(O)(/C=C\n2cc(I)c3c(Cl)ncnc32)C(OCc2ccccc2)=C1OCc1ccccc1 (centres undefined)
46.9 µM

What value of IC50 has been recorded for this entry: O=C1O/C(=C\Cn2cnc3ccn(C/C=C4\OC(=O)C(OCc5ccccc5)=C4OCc4ccccc4)c3c2=O)C(OCc2ccccc2)=C1OCc1ccccc1
47.2 µM

What value of IC50 has been recorded for this entry: O=C1O/C(=C\Cn2cnc3c(Cl)c(F)nc(F)c32)C(O)=C1O (mixture of isomers)
> 100 µM

----------
# ASSAY_COMMENT: Antiproliferative activity against human MIAPaCa2 cells incubated for 72 hrs by MTT assay
# Type: functional, cell-based, MIA PaCa-2
# ASSAY_CONDITIONS: mia paca-2
PROPERTY_MEASURED: IC50 (µM)
Respond numerically; units are µM and should not be typed.

What value of IC50 has been recorded for this entry: O=C1NC(O)(CCn2cnc3ccn(CCC4(O)NC(=O)C(OCc5ccccc5)=C4OCc4ccccc4)c3c2=O)C(OCc2ccccc2)=C1OCc1ccccc1 (stereo in doubt; 19)
4.4

----------
# ASSAY_COMMENT: Antiproliferative activity against mouse L1210/0 cells incubated for 72 hrs by MTT assay
# Type: functional, cell-based
# ASSAY_CONDITIONS: Mus musculus, L1210/0, 72 h
So I've got a bunch of molecules here, and I need their pIC50 values.
API: returns pIC50 as number; meaning -log10 of concentration in mol/L.

What value of pIC50 has been recorded for this entry: O=C1O/C(=C\Cn2cnc3cncc(Br)c32)C(OCc2ccccc2)=C1OCc1ccccc1 (mixture of isomers)
5.17

What value of pIC50 has been recorded for this entry: O=C1NC(O)(CCn2cnc3ccn(CCC4(O)NC(=O)C(OCc5ccccc5)=C4OCc4ccccc4)c3c2=O)C(OCc2ccccc2)=C1OCc1ccccc1 (stereo in doubt; 18)
5.36

What value of pIC50 has been recorded for this entry: O=C1NC(O)(CCn2cnc3cc[nH]c3c2=O)C(OCc2ccccc2)=C1OCc1ccccc1 (stereo not given)
3.97

What value of pIC50 has been recorded for this entry: O=C1O/C(=C\Cn2cnc3cc[nH]c3c2=O)C(OCc2ccccc2)=C1OCc1ccccc1
4.55

What value of pIC50 has been recorded for this entry: O=C1NC(O)(CCn2cnc3cncc(Br)c32)C(OCc2ccccc2)=C1OCc1ccccc1 (stereo not given)
4.30

What value of pIC50 has been recorded for this entry: O=C1O/C(=C\Cn2cnc3ccn(C/C=C4\OC(=O)C(OCc5ccccc5)=C4OCc4ccccc4)c3c2=O)C(OCc2ccccc2)=C1OCc1ccccc1
5.35

What value of pIC50 has been recorded for this entry: COc1nc(OC)c2c(ccn2C/C=C2\OC(=O)C(OCc3ccccc3)=C2OCc2ccccc2)n1 (mixture of isomers)
5.33

What value of pIC50 has been recorded for this entry: O=C1O/C(=C\Cn2cnc3ncc(Br)c-3c2)C(OCc2ccccc2)=C1OCc1ccccc1 (mixture of isomers)
4.82

What value of pIC50 has been recorded for this entry: O=C1O/C(=C\Cn2cc(I)c3c(Cl)ncnc32)C(OCc2ccccc2)=C1OCc1ccccc1 (mixture of isomers)
3.89
